Values were extracted from the supplement of paper PMC10567573.

B1: PWWP2B (parent)
chain: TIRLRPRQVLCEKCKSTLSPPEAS

Variants of: B1
Assay: protein stability index of a GFP-peptide fusion (GPS, HEK-293T) (PSI 1-6); higher = more stable;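 further: lentivirally expressed fusions sorted by FACS into six bins by GFP to DsRed ratio, PSI derived from sequencing read proportions per bin multiplied by bin number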
Conditions: c terminus: a fixed tail appended
Exercise: for every item that follows, state its recorded protein stability index.
Returns: the value as a bare number; no unit string appended.

Exercise: Which protein stability index reading was recorded for the variant TIRLRPRQVLCEICKSTLSPPEAS [K13I] ?
Solution: 2.73

Exercise: Reported protein stability index for TIRLRPRQVLCEKCKSTLSPKEAS [P21K] : what is it?
Solution: 3.21

Exercise: I have this variant here, TIRLRPDQVLCEKCKSTLSPPEAS [R7D] , and I need its recorded protein stability index.
Solution: 3.85

Exercise: Need protein stability index of TIRLRPRQVLCEKCKSTLLPPEAS [S19L] , thanks.
Solution: 2.72

Exercise: // protein stability index lookup, key: PIRLRPRQVLCEKCKSTLSPPEAS [T1P]
Solution: 3.43

Exercise: Tell me the measured protein stability index of TIRLRPRQVLCEKCYSTLSPPEAS [K15Y] , please.
Solution: 2.73

Exercise: Which measured protein stability index value corresponds to TIRARPRQVLCEKCKSTLSPPEAS [L4A] ?
Solution: 2.99

Exercise: Name the reported protein stability index value associated with the variant TIRLRPRQVLCEKCKSTLSMPEAS [P20M]
Solution: 2.55

Exercise: Query (variant): TIRLRPRQVLCEKCKSTLSPPEWS [A23W] ; field requested: protein stability index
Solution: 1.96

Exercise: Entry under review: TIRLRPRQVLQEKCKSTLSPPEAS [C11Q] . Reported protein stability index?
Solution: 3.57

Exercise: Reported protein stability index for TINLRPRQVLCEKCKSTLSPPEAS [R3N] : what is it?
Solution: 3.8

Exercise: Would you kindly share the measured protein stability index for TIRLRPRQVYCEKCKSTLSPPEAS [L10Y] ?
Solution: 2.5

Exercise: Could you share which protein stability index value was measured for TIRLRPRQVLCEKCKCTLSPPEAS [S16C] ?
Solution: 2.98

Exercise: Which protein stability index value is on record for TIRLRPRQVLCEKCKSTLSPPEAV [S24V] ?
Solution: 2.62

Exercise: Sample TIRLRPRKVLCEKCKSTLSPPEAS [Q8K] — what was its protein stability index?
Solution: 2.99

Exercise: Consider the variant shown here: TIRLRPRQVLCEKCRSTLSPPEAS [K15R] What is its recorded protein stability index?
Solution: 2.59

Exercise: Suppose we examine the variant CIRLRPRQVLCEKCKSTLSPPEAS [T1C] ; what protein stability index value has been reported?
Solution: 2.91

Exercise: Name the reported protein stability index value associated with the variant TIRLRPRQVLCEKCKSCLSPPEAS [T17C]
Solution: 2.5

Exercise: Looking for the measured protein stability index of TIRLRPRIVLCEKCKSTLSPPEAS [Q8I] , can you help?
Solution: 2.64

Exercise: Can you look up the measured protein stability index of TIRLRPRQVLCEKCKSTLSPPDAS [E22D] for me?
Solution: 3.41

Exercise: Fill in the blank: the reported protein stability index of TIRLRPRQVLCEKTKSTLSPPEAS [C14T] is ____.
Solution: 4.22

Exercise: Param item = TIRLRPCQVLCEKCKSTLSPPEAS [R7C] ; retrieve measured protein stability index.
Solution: 3.2

Exercise: Return reported protein stability index; argument: TIRLRPRQVLCEKCKPTLSPPEAS [S16P]
Solution: 2.73

Exercise: # input variant: TIRLRPRQVLCEKCKATLSPPEAS [S16A] ; wanted: its protein stability index
Solution: 3.08

Exercise: Using the record for TIRLRPRQVLCEGCKSTLSPPEAS [K13G] , report its protein stability index.
Solution: 2.6

Exercise: Any idea what protein stability index was measured for TIRLRPRQVLCEMCKSTLSPPEAS [K13M] ?
Solution: 2.84
